assay: activity coefficient (dimensionless); of the first substance listed, at infinite dilution; xn = mol fraction of the nth substance listed; settings: 323.16 K; 101 kPa; Liquid; dilutor technique; x1 = 0
Mark 0 (no) for activity coefficient values under 100, and 1 (yes) for everything at or above.

C=CCCCC [hex-1-ene] + CCCCn1cc[n+](C)c1.F[B-](F)(F)F :: 0 (no)
CCCCCCCC [octane] + CCCCn1cc[n+](C)c1.F[B-](F)(F)F :: 1 (yes)
C=CCCCCC [1-heptene] + CCCCn1cc[n+](C)c1.F[B-](F)(F)F :: 0 (no)
CCCCCCC [heptane] + CCCCn1cc[n+](C)c1.F[B-](F)(F)F :: 0 (no)
C=CCCCCCC [oct-1-ene] + CCCCn1cc[n+](C)c1.F[B-](F)(F)F :: 0 (no)
C=CCCCCCCCC [1-decene] + CCCCn1cc[n+](C)c1.F[B-](F)(F)F :: 1 (yes)

Data origin, for the record: the NIST ThermoML archive (doi:10.1016/j.fluid.2009.05.007)
